Target: HLA-B*53:01
Assay: IEDB peptide-MHC binding, purified MHC/competitive/radioactivity; bounds were set here for any values at or beyond the usual limits of such assays
Settings: source organism: Bordetella pertussis
Overview of recorded pIC50 for various sequences
Here pIC50 is given on a logarithmic scale as minus log10 of the concentration in mol/L.

Previously resolved entries follow.
INSERT INTO measurements (residues, recordedvalue) VALUES
  ('ESYSESHNF', 5.20),
  ('GGVPGGAVP', 4.57),
  ('EPQAELAVF', 5.34),
  ('DATFETYAL', 5.31),
  ('GAVPGGAVP', 4.16);

Look up and report measured pIC50 (HLA-B*53:01) for the following sequence: FAILSSTTE
4.33

###

Target: HLA-B*44:03
Test: IEDB peptide-MHC binding, purified MHC/competitive/radioactivity; bounds were set here for any values at or beyond the usual limits of such assays
Conditions: source organism: Bordetella pertussis
observable: IC50 (µM)
Kindly provide the numeric value in µM only, without the unit symbol.

Previously resolved entries follow.
INSERT INTO assay_data (residues, systemtested, scaleunit, recordedvalue) VALUES
  ('KEAATIVAA', 'HLA-B*44:03', 'µM', 15),
  ('AEHGEVSIQ', 'HLA-B*44:03', 'µM', 2.88),
  ('SESHNFHAS', 'HLA-B*44:03', 'µM', 32.7);

Look up and report measured IC50 (HLA-B*44:03) for the following sequence: AEVKVGYRA
2.36

###

Molecular target: HLA-A*02:01
Experiment: IEDB peptide-MHC binding, purified MHC/competitive/radioactivity; bounds were set here for any values at or beyond the usual limits of such assays
Conditions: source organism: Bordetella pertussis
observable: pIC50
Here pIC50 is given on a logarithmic scale as minus log10 of the concentration in mol/L.

Look up and report measured pIC50 (HLA-A*02:01) for the following sequence: GKLPKPVTV
4.16
